# TEST SYSTEM: 5-hydroxytryptamine receptor 2B (Homo sapiens); further: assay procedure not described here
# Sequence (P41595 whole entry): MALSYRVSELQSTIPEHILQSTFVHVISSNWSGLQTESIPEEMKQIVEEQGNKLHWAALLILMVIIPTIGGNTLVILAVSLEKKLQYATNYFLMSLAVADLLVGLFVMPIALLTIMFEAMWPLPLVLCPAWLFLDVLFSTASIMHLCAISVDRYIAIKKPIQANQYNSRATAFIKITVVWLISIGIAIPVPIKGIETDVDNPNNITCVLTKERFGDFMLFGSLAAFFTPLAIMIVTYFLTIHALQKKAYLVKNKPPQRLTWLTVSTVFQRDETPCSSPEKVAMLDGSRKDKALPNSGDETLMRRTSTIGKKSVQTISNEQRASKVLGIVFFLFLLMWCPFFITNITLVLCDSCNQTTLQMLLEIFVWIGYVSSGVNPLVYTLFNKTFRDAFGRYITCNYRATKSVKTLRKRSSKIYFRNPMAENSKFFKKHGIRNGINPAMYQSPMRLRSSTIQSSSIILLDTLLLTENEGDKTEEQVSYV
# Assay type: functional, cell-based
Consider the following compounds; for each one, report its AC50.

Query AC50 for CS(=O)(=O)OCCCCOS(C)(=O)=O [BUSULFAN]
> 30 µM

Query AC50 for CC(NCCc1ccc(O)cc1)C(O)c1ccc(O)cc1 (stereo unspecified) [RITODRINE]
> 30 µM

Query AC50 for CCn1cc(C(=O)O)c(=O)c2cc(F)c(N3CCNCC3)nc21 [ENOXACIN]
> 10 µM

Query AC50 for CN1c2ccccc2C(NCCCCCCC(=O)O)c2ccc(Cl)cc2S1(=O)=O (stereo unspecified) [TIANEPTINE]
> 30 µM

Query AC50 for CC(C)(C)NC[C@H](O)COc1nsnc1N1CCOCC1 [TIMOLOL]
> 30 µM

Query AC50 for CNCCC=C1c2ccccc2CCc2ccccc21 [NORTRIPTYLINE]
> 30 µM
